- System: Wolbachia pipientis
- experimentSummary: Anti-Wolbachia Cell-Based Screen
- Type: functional
- Design: scale not given: in the data most compounds retested in dose-response had high values
- conditionInfo: 5 µM
In all, about 48,000 compounds went through this assay and about 13,000 (27%) showed an effect of 50% or more. The list shows a part of the results.
Measured Percent Effect of individual entries
Write the value in % as a bare number.

Qu. Could you share which Percent Effect value was measured for COc1cccc2c1CCN(C(=O)NCc1nnc3ccccn13)C2 ?
Ans. -4.622

Qu. Which Percent Effect value is on record for CC(C)(O)c1cc(CC2(NCC3CCCCC3)COC2)no1 ?
Ans. -2.979

Qu. Could you tell me which Percent Effect is on file for CNC(=O)[C@H]1C[C@@H]2CN(Cc3cccc(C)c3)C[C@H]1O2.O=C(O)C(F)(F)F ?
Ans. 116.6

Qu. Returns the measured Percent Effect for the input compound. Input: CC1CN(C(=O)c2cnn(-c3ccccn3)c2C(C)C)CC(C)(C)O1 (stereo not given)
Ans. 3.589

Qu. Report Percent Effect for COCCC(=O)NCCn1nc(C2CCNC2)c2cccnc21.Cl (stereo not given) please.
Ans. 104.9

Qu. Returns the measured Percent Effect for the input compound. Input: Cc1ccc(CN2CCc3[nH]nc(C(=O)N4CCN(C)CC4)c3C2)o1.O=C(O)C(F)(F)F.O=C(O)C(F)(F)F.O=C(O)C(F)(F)F
Ans. -23.43

Qu. Requested field: Percent Effect. Item: CCS(=O)(=O)N1C[C@H]2CN(Cc3cccc(C)c3)C(=O)[C@H]2C1
Ans. 103

Qu. Value lookup for Percent Effect; key = c1cnc(-c2nc(CN3CCC(c4ccn[nH]4)CC3)cs2)nc1
Ans. -2.472

More entries:
Qu. # lookup: Percent Effect of COCCN(C(=O)c1c[nH]c2ncccc12)C1CCCC1
Ans. 6.84

Qu. Requested read-out: Percent Effect. Entry: CC(C)(C)CC(=O)NCCn1nc(C2CCNC2)c2cccnc21.Cl (stereo not given)
Ans. 117.2

Qu. I'd like to know its Percent Effect. The compound in question is CC1(C)CCC(CC(=O)O)c2ccccc21 (stereo not given)
Ans. 8.259

Qu. What value of Percent Effect has been reported for the following compound? Cc1cc(NC2CCN(Cc3ccccn3)CC2)n2nc(C)c(C)c2n1
Ans. 3.019
